test: Intrinsic clearance in human liver microsomes in presence of NADPH incubated for 60 mins by LC-MS/MS analysis; type: ADME, Microsome; conditions: read-out: CLH
Catalogue of microsomal CLint readings, one per entry.

1) CC1CN(C)CC[C@H]1c1cc(-c2ccncc2)c(-c2ccc(F)cc2)[nH]1.Cl.Cl (single isomer, unassigned)
24.1 µL/min/mg
2) C[C@@H]1CN(C)CC[C@@H]1c1cc(-c2ccncc2)c(-c2ccc(F)cc2)[nH]1.Cl.Cl
38.8 µL/min/mg
3) C[C@@H]1CN(C)CCC1c1cc(-c2ccncc2)c(-c2ccc(F)cc2)[nH]1.Cl.Cl (single isomer, unassigned)
< 23 µL/min/mg

Okay, now this compound:
Give the measured microsomal CLint of C[C@H]1CN(C)CC[C@@H]1c1cc(-c2ccncc2)c(-c2ccc(F)cc2)[nH]1.Cl.Cl . < 23 µL/min/mg

====

assay: Stability in human liver microsomes assessed as remaining compound in absence of NADPH incubated for 60 mins by LC-MS/MS analysis; format: ADME, Microsome; conditions: read-out: Stability
Catalogue of remaining at 1 h readings, one per entry.
All answers are understood in %, so give the number only.

1) C[C@H]1CN(C)CC[C@@H]1c1cc(-c2ccncc2)c(-c2ccc(F)cc2)[nH]1.Cl.Cl
100
2) C[C@@H]1CN(C)CC[C@@H]1c1cc(-c2ccncc2)c(-c2ccc(F)cc2)[nH]1.Cl.Cl
99
3) CC1CN(C)CC[C@H]1c1cc(-c2ccncc2)c(-c2ccc(F)cc2)[nH]1.Cl.Cl (single isomer, unassigned)
101

Okay, now this compound:
Give the measured remaining at 1 h of C[C@@H]1CN(C)CCC1c1cc(-c2ccncc2)c(-c2ccc(F)cc2)[nH]1.Cl.Cl (single isomer, unassigned) . 98

====

Catalogue of IC50 readings, one per entry.
experiment: Inhibition of recombinant Plasmodium falciparum PKG using FAM-PKA peptide as fluorescent substrate preincubated for 15 mins followed by substrate addition measured after 1 hr by fluorescence polarization based IMAP assay
All answers are understood in nM, so give the number only.

1) CCc1c(C2CCN(C)CC2)[nH]c(-c2ccc(F)cc2)c1-c1ccncc1.Cl.Cl
1610

Give the measured IC50 of CN1CCC(c2cc(-c3ccncc3C(N)=O)c(-c3ccc(F)cc3)[nH]2)CC1.Cl.Cl . 4910

Give the measured IC50 of CN1C[C@@H]2C(c3cc(-c4ccncc4)c(-c4ccc(F)cc4)[nH]3)[C@@H]2C1.Cl.Cl (stereo partly drawn) . 207

====

Catalogue of fraction unbound at 22 h readings, one per entry.
assay: Protein binding in C57BL/6 mouse plasma assessed as unbound fraction incubated for 22 hrs by LC-MS/MS analysis; assay type: ADME, cell-free
Output: the number by itself.

1) C[C@@H]1CN(C)CCC1c1cc(-c2ccncc2)c(-c2ccc(F)cc2)[nH]1.Cl.Cl (single isomer, unassigned)
0.119
2) C[C@@H]1CN(C)CC[C@@H]1c1cc(-c2ccncc2)c(-c2ccc(F)cc2)[nH]1.Cl.Cl
0.155

Give the measured fraction unbound at 22 h of CC1CN(C)CC[C@H]1c1cc(-c2ccncc2)c(-c2ccc(F)cc2)[nH]1.Cl.Cl (single isomer, unassigned) . 0.115

Give the measured fraction unbound at 22 h of C[C@H]1CN(C)CC[C@@H]1c1cc(-c2ccncc2)c(-c2ccc(F)cc2)[nH]1.Cl.Cl . 0.122

====

test: Intrinsic clearance in CD-1 mouse liver microsomes in presence of NADPH incubated for 60 mins by LC-MS/MS analysis; assay type: ADME, Microsome; conditions: read-out: CLH
endpoint label: microsomal CLint (µL/min/mg)
All answers are understood in µL/min/mg, so give the number only.

1) CC1CN(C)CC[C@H]1c1cc(-c2ccncc2)c(-c2ccc(F)cc2)[nH]1.Cl.Cl (single isomer, unassigned)
49.2

Okay, now this compound:
Give the measured microsomal CLint of C[C@@H]1CN(C)CCC1c1cc(-c2ccncc2)c(-c2ccc(F)cc2)[nH]1.Cl.Cl (single isomer, unassigned) . 44.5

====

system: Plasmodium falciparum; experiment: Antimalarial activity against drug-sensitive Plasmodium falciparum 3D7 infected in human erythrocytes assessed as reduction in parasitemia incubated for 72 hrs by SYBR green I and Mitotracker deep red dye based flow cytometric analysis; assay type: functional, organism-based; conditions: Plasmodium falciparum, 3D7, 72 h
endpoint label: EC50

See these solved cases before continuing.
1) CN1CCC(c2cc(-c3ccncc3)c(-c3ccc(F)cc3)n2C)CC1.Cl.Cl
710 nM
2) C=Cc1c(C2CCN(C)CC2)[nH]c(-c2ccc(F)cc2)c1-c1ccncc1.CC(=O)O
1080 nM
3) CN1C2CCC1CC(c1cc(-c3ccncc3)c(-c3ccc(F)cc3)[nH]1)C2.Cl.Cl (centres undefined)
350 nM
4) CC(=O)O.CN1CCC(c2cc(-c3ccnc(C#N)c3)c(-c3ccc(F)cc3)[nH]2)CC1
420 nM
5) CN1C[C@@H]2C(c3cc(-c4ccncc4)c(-c4ccc(F)cc4)[nH]3)[C@@H]2C1.Cl.Cl (some centres undefined)
640 nM
6) CN1CCC(C)(c2cc(-c3ccncc3)c(-c3ccc(F)cc3)[nH]2)CC1.Cl.Cl
550 nM
7) CC(=O)O.CN1CCC(c2[nH]c(-c3ccc(F)cc3)c(-c3ccncc3)c2CO)CC1
4610 nM
8) CN1CCC(c2cc(-c3ccncc3CO)c(-c3ccc(F)cc3)[nH]2)CC1.Cl.Cl
481 nM
9) CN1CCC(c2cc(-c3ccncc3)c(-c3ccc(C(F)(F)F)cc3)[nH]2)CC1.Cl.Cl
530 nM
10) CN1CCC(c2cc(-c3ccnc(N)c3)c(-c3ccc(F)cc3)[nH]2)CC1.Cl.Cl
50 nM

Give the measured EC50 of CN1CCC(c2cc(-c3ccncc3)c(-c3ccsc3)[nH]2)CC1.Cl.Cl . 1020 nM

Give the measured EC50 of CN1CCC(c2cc(-c3ccncc3C(N)=O)c(-c3ccc(F)cc3)[nH]2)CC1.Cl.Cl . > 20000 nM

Give the measured EC50 of CN1CCC(c2cc(-c3ccncc3F)c(-c3ccc(F)cc3)[nH]2)CC1.Cl.Cl . 300 nM

Give the measured EC50 of CN1CCC(c2[nH]c(-c3ccc(F)cc3)c(-c3ccncc3)c2C#N)CC1.Cl.Cl . 900 nM

Give the measured EC50 of CN1CCC(c2cc(-c3ccncc3Br)c(-c3ccc(F)cc3)[nH]2)CC1.Cl.Cl . 330 nM

Give the measured EC50 of Cc1cc(-c2cc(C3CCN(C)CC3)[nH]c2-c2ccc(F)cc2)ccn1.Cl.Cl . 2330 nM

Give the measured EC50 of CN1CCC(c2cc(-c3ccn4nnnc4c3)c(-c3ccc(F)cc3)[nH]2)CC1.Cl.Cl . 2750 nM

====

experiment: Half life in CD-1 mouse liver microsomes in presence of NADPH incubated for 60 mins by LC-MS/MS analysis; assay type: ADME, Microsome
Catalogue of half-life readings, one per entry.
All answers are understood in min, so give the number only.

1) C[C@@H]1CN(C)CCC1c1cc(-c2ccncc2)c(-c2ccc(F)cc2)[nH]1.Cl.Cl (single isomer, unassigned)
31.2

Okay, now this molecule:
Give the measured half-life of CC1CN(C)CC[C@H]1c1cc(-c2ccncc2)c(-c2ccc(F)cc2)[nH]1.Cl.Cl (single isomer, unassigned) . 28.2

====

test system: Plasmodium falciparum; assay: Antimalarial activity against Plasmodium falciparum expressing PKG T618Q mutant infected in human erythrocytes assessed as reduction in parasitemia incubated for 72 hrs by SYBR green I and Mitotracker deep red dye based flow cytometric analysis; assay type: functional, organism-based; conditions: Plasmodium falciparum, 72 h
Catalogue of EC50 readings, one per entry.
All answers are understood in nM, so give the number only.

See these solved cases before continuing.
1. Cc1cc(-c2cc(C3CCN(C)CC3)[nH]c2-c2ccc(F)cc2)ccn1.Cl.Cl
960
2. C=Cc1c(C2CCN(C)CC2)[nH]c(-c2ccc(F)cc2)c1-c1ccncc1.CC(=O)O
1170
3. CN1CCC(c2cc(-c3ccncc3C#N)c(-c3ccc(F)cc3)[nH]2)CC1.Cl.Cl
4400

Give the measured EC50 of C[C@@H]1CN(C)CC[C@@H]1c1cc(-c2ccncc2)c(-c2ccc(F)cc2)[nH]1.Cl.Cl . 760

Give the measured EC50 of CN1CCC(c2cc(-c3ccncc3Br)c(-c3ccc(F)cc3)[nH]2)CC1.Cl.Cl . 1670

====

Values of pIC50 reported for Cytochrome P450 3A4 (Homo sapiens) appear below.
Interpret pIC50 as the negative base-10 log of the concentration measured in mol/L.

1) C[C@@H]1CN(C)CCC1c1cc(-c2ccncc2)c(-c2ccc(F)cc2)[nH]1.Cl.Cl (single isomer, unassigned)
5.13

What is its pIC50 for Cytochrome P450 3A4 (Homo sapiens)? Entry: C[C@H]1CN(C)CC[C@@H]1c1cc(-c2ccncc2)c(-c2ccc(F)cc2)[nH]1.Cl.Cl 5.32

====

experiment: Efflux ratio of apparent permeability from basolateral to apical side over apical to basolateral side in human Caco-2 cells incubated for 120 mins by LC-MS/MS analysis; type: ADME, cell-based
Catalogue of efflux ratio at 2 h readings, one per entry.

See these solved cases before continuing.
1) C[C@@H]1CN(C)CC[C@@H]1c1cc(-c2ccncc2)c(-c2ccc(F)cc2)[nH]1.Cl.Cl
1
2) CC1CN(C)CC[C@H]1c1cc(-c2ccncc2)c(-c2ccc(F)cc2)[nH]1.Cl.Cl (single isomer, unassigned)
1.27
3) C[C@@H]1CN(C)CCC1c1cc(-c2ccncc2)c(-c2ccc(F)cc2)[nH]1.Cl.Cl (single isomer, unassigned)
1.59

Okay, now this compound:
Give the measured efflux ratio at 2 h of C[C@H]1CN(C)CC[C@@H]1c1cc(-c2ccncc2)c(-c2ccc(F)cc2)[nH]1.Cl.Cl . 1.52

The origin of these recorded values is ChEMBL document CHEMBL5528065.
